- study system: p53 Y220C mutant protein (amino acid residues 94-293) (Homo sapiens, UniProt P04637, Y220C)
- Construct: p53 Y220C mutant protein (amino acid residues 94-293)
- method description: Thermal Shift Assay (TSA), dTM
- Format: binding
- test parameters: thermal shift, 10 uM compound; read-out: TSA P53 Y220C dTM (10 uM)
Reported ΔTm at 10 µM values for a set of compounds

given smiles | ΔTm at 10 µM
CNC(=O)c1cc(NCC#Cc2nc3c(N[C@@H]4CCN(C)C[C@@H]4F)cccn3c2SC(F)(F)F)c(OC)cc1F | ≥ 10 °C
COc1ccc(C(=O)NC(C)C)cc1NCC#Cc1nc2c(N[C@@H]3CCN(C)C[C@@H]3F)cccn2c1SC(F)(F)F | ≥ 10 °C

Noted for "CNC(=O)c1cccc(NCC#Cc2nc3c(N[C@@H]4CCN(C)C[C@@H]4F)cccn3c2SC(F)(F)F)n1" : its ΔTm at 10 µM reads ≥ 10 °C

Noted for "CNC(=O)c1ccc(NCC#Cc2nc3c(N[C@@H]4CCn5cncc5C4)cccn3c2SC(F)(F)F)c(OC)c1" : its ΔTm at 10 µM reads 5 to 10 °C

Noted for "CNC(=O)c1ccc(NCC#Cc2cn3c(N[C@@H]4CCN(C)C[C@@H]4F)cccc3c2SC(F)(F)F)c(OC)c1" : its ΔTm at 10 µM reads ≥ 10 °C

Noted for "CNC(=O)c1ccc(NCC#Cc2nc3c(N[C@@H]4CCN(C)C(=O)C4)cccn3c2SC(F)(F)F)c(OC)c1" : its ΔTm at 10 µM reads 5 to 10 °C

Noted for "CNC(=O)c1ccc(NCC#Cc2cc3c(N[C@@H]4CCN(C)C[C@@H]4F)cccn3c2SC(F)(F)F)c(OC)c1" : its ΔTm at 10 µM reads ≥ 10 °C
